# Assay Method Text: Systemic toxicity, repeated i.p. injection in mice
# Type: in vivo
# Condition Description: mouse, in vivo, ip, read-out: Maximum tolerated dose
Readout Name: MTD

For the compound CC(O)(CN)C(=O)Nc1ccc([N+](=O)[O-])c(C(F)(F)F)c1 (stereo not shown) [BP-34] , what MTD is on record?
~250 mg/kg

* * *

# Measured On: androgen receptor (Homo sapiens, UniProt P10275, T878A)
# Construct: endogenous in cells; host or cells: LNCaP human prostate cancer cells
# Sequence (P10275 whole entry T878A): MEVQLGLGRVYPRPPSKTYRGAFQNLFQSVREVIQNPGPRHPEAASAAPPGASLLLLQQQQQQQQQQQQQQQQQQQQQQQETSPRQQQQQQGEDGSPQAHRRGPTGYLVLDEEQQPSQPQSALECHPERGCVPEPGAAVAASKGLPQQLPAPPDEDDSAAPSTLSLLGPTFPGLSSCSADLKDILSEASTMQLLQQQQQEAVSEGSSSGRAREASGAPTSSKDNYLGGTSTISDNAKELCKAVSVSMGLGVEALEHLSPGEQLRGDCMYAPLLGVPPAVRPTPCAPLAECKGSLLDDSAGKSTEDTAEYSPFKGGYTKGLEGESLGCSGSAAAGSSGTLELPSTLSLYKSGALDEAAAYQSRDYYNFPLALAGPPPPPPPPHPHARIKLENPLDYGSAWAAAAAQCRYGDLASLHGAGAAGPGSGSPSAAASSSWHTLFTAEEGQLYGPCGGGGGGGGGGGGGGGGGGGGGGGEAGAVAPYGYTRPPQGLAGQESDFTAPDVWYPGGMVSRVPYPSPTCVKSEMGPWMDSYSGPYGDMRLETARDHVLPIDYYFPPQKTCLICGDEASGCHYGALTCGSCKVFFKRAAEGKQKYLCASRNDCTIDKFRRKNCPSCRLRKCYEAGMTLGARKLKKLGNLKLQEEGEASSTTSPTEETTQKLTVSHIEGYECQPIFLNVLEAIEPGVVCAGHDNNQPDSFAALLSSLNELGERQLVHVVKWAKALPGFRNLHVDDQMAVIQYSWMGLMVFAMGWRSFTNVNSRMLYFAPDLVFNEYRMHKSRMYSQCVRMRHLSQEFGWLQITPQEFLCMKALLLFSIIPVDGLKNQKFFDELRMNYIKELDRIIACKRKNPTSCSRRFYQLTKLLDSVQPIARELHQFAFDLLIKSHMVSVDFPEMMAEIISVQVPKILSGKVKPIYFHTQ
# Assay Method Text: Androgen receptor remaining in LNCaP cell lysate, Western Blot
# Format: cell-based
# Condition Description: LNCaP, 10μ Molar conc., 48 hours
Below, each of the compounds is paired with its reported Percent of the androgen receptor remaining value.
Answer format: numeric, % implied, no suffix.

- Compound: "CC(O)(CNC(=S)Nc1ccc(Br)cc1)C(=O)Nc1ccc([N+](=O)[O-])c(C(F)(F)F)c1 (stereo not shown) [BP-668]"
  Numeric Result: 0

Quick check: Percent of the androgen receptor remaining of CC(O)(CNC(=O)Nc1ccc(I)cc1)C(=O)Nc1ccc([N+](=O)[O-])c(C(F)(F)F)c1 (stereo not shown) [BP-754] ?
14

Value lookup for Percent of the androgen receptor remaining; key = CCCNC(=S)Nc1ccc(C#N)c(C(F)(F)F)c1 [BP-735]
1

// lookup Percent of the androgen receptor remaining for CC(O)(CN)C(=O)Nc1ccc([N+](=O)[O-])c(C(F)(F)F)c1 (stereo not shown) [BP-34]
98

Data request, read-out Percent of the androgen receptor remaining, for CC(C)(O)C(=O)Nc1ccc([N+](=O)[O-])c(C(F)(F)F)c1 [Hydroxyflutamide, reference compound]
94

For CC(O)(CNCC(C)(O)C(=O)Nc1ccc([N+](=O)[O-])c(C(F)(F)F)c1)C(=O)Nc1ccc([N+](=O)[O-])c(C(F)(F)F)c1 (stereo not shown) [BP-673] , what is its reported Percent of the androgen receptor remaining?
3

Given CC(O)(CNCCOCCOCCNCC(C)(O)C(=O)Nc1ccc([N+](=O)[O-])c(C(F)(F)F)c1)C(=O)Nc1ccc([N+](=O)[O-])c(C(F)(F)F)c1 (stereo not shown) [BP-676] , state its recorded Percent of the androgen receptor remaining.
20

* * *

# reported Percent of the androgen receptor remaining; entries follow
# Measured On: androgen receptor (Homo sapiens, UniProt P10275, T878A)
# Construct: endogenous in cells; host or cells: LNCaP human prostate cancer cells
# Assay Method Text: Androgen receptor remaining in LNCaP cell lysate, Western Blot
# Type: cell-based
# Condition Description: LNCaP, 3μ Molar conc., 48 hours
Reply with just the number (in %).

Some solved entries appear below for comparison.
- Compound: "CC(O)(CNCCOCCOCCNCC(C)(O)C(=O)Nc1ccc([N+](=O)[O-])c(C(F)(F)F)c1)C(=O)Nc1ccc([N+](=O)[O-])c(C(F)(F)F)c1 (stereo not shown) [BP-676]"
  Uom: "%"
  Numeric Result: 64
- Compound: "CCCNC(=S)Nc1ccc(C#N)c(C(F)(F)F)c1 [BP-735]"
  Uom: "%"
  Numeric Result: 45

For the compound shown here, CC(C)(O)C(=O)Nc1ccc([N+](=O)[O-])c(C(F)(F)F)c1 [Hydroxyflutamide, reference compound] , give the reported Percent of the androgen receptor remaining.
98

What value of Percent of the androgen receptor remaining has been recorded for this entry: CC(O)(CN)C(=O)Nc1ccc([N+](=O)[O-])c(C(F)(F)F)c1 (stereo not shown) [BP-34]
97
